Target: COX-2 (Ovis aries)
Construct: gene PTGS2
Sequence (P79208 17-603): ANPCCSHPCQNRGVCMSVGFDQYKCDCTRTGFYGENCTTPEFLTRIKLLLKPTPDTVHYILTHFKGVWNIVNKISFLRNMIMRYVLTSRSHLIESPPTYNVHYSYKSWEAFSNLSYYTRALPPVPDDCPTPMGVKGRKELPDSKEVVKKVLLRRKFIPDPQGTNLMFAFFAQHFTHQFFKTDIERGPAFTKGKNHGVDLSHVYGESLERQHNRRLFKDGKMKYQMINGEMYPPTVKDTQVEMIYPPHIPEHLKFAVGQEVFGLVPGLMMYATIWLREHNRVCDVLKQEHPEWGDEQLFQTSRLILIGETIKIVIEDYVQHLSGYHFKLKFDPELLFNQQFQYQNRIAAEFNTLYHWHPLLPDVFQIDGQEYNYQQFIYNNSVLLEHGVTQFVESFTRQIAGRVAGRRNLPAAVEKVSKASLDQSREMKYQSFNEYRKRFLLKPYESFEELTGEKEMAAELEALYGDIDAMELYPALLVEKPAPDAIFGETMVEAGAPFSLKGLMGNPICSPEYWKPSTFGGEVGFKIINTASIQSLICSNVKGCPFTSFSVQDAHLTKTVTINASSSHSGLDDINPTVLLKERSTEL
Assay: COX (ovine) inhibitor screening assay kit, PGF2α produced by SnCl2 reduction of COX-derived PGH2, read at […] nm
Assay type: biochemical
Recorded Metric: IC50

Consider C=C(C)[C@@H]1CC[C@]2(CO)CC[C@]3(C)[C@H](CC[C@@H]4[C@@]5(C)CC[C@H](O)C(C)(C)[C@@H]5CC[C@]43C)[C@@H]12 [AN-10] . Its measured IC50 is < 1 µM

----------
Molecular target: UniProtKB P05979
Sequence (P05979 25-600): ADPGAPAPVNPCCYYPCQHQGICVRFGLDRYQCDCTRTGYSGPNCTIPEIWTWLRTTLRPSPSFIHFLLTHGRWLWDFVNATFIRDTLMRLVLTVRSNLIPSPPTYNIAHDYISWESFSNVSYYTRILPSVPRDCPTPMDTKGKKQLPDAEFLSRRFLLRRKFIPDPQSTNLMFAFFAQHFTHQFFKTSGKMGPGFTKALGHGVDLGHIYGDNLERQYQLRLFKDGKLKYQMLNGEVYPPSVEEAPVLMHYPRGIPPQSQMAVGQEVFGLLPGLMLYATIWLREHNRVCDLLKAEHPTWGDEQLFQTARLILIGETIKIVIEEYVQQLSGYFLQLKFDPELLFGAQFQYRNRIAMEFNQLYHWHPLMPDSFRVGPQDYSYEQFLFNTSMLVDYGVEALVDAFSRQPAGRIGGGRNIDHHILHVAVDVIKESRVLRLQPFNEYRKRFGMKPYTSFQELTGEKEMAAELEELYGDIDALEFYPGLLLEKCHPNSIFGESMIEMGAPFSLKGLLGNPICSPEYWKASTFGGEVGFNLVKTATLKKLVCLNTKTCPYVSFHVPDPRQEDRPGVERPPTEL
Recorded Metric: IC50

Consider C=C(C)[C@@H]1CC[C@]2(CO)CC[C@]3(C)[C@H](CC[C@@H]4[C@@]5(C)CC[C@H](O)C(C)(C)[C@@H]5CC[C@]43C)[C@@H]12 . Its measured IC50 is > 10 µM
